Biological target: T1, 4H72-bH
T1 chain: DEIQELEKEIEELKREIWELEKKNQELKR
Assay: two-hybrid library CCNG1;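 further: natural log of median RNA to DNA barcode read ratio; higher means stronger binding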
MEASURED_ATTRIBUTE: interaction score

BINDER | interaction score
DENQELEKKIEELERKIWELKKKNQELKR [4H1328-bH] | 0.492
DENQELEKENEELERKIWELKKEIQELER [4H1193-bH] | -0.782
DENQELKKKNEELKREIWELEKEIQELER [4H1985-bH] | -0.781
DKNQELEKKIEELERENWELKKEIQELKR [4H3354-bH] | -1.11
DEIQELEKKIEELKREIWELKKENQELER [4H331-bH] | 0.733
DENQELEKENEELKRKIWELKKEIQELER [4H1257-bH] | -2.61

I: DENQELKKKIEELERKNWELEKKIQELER [4H1845-bH]
II: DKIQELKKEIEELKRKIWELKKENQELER [4H2667-bH]
## Input interaction score comparison. Which is larger, I or II ? Pick one and reply with its label.
## Output II
